Protocol summary: Quantitative highthroughput screen to assess conditional lethalithy of NOMO1 cells grown in RPMI1640 with dialyzed fetal bovine serum (RPMI+ds) (AID 1963877); also: nearly all actives have a fitted effect of over 30% in size;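 as to viability: 100% = DMSO control wells and 0% = empty wells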
Test parameters: NOMO1 in RPMI+dialyzed FBS viability, ATP luminescence, 48 h; series mostly up to 45.8 µM
Description: Assay Provider: Jason Cantor Ph.D. Department of Biochemistry University of Wisconsin-Madison, Madison, WI, USA Chemical screening studies have identified drug sensitivities across hundreds of cancer cell lines but most putative therapeutics fail to translate. […] Sets of conditional anticancer compounds spanned phases of clinical development and included non-oncology drugs were assessed. […] 6; Detection; Luminescence, Viewlux PerkinElmer. […]
Results filed as inconclusive are left out. Active and inactive are the calls of the source. Calls follow the shape of the dose curve; as a rule, active = well fitted cell-killing curve with a large enough effect; inconclusive = small, poorly fitted or top-dose-only effect; inactive = flat fitted curve, though single readings scatter.
Allowed answers: active, inactive

| Molecule | Group label |
| --- | --- |
| Clc1ccc(-c2nc3sccn3c2C=NOCc2ccc(Cl)c(Cl)c2)cc1 | inactive |

Q: // outcome(item) with item = Oc1cccc(-c2nc(N3CCOCC3)c3oc4ncccc4c3n2)c1
Result: inactive

Q: // outcome(item) with item = C=CCc1cccc(C=NNC(=O)CN2CCN(Cc3ccccc3)CC2)c1O
Result: active

Q: // outcome(item) with item = NC(=O)NN=Cc1ccc([N+](=O)[O-])o1
Result: inactive

Q: // outcome(item) with item = CCN1CCCC1CNC(=O)c1cc(S(=O)(=O)CC)c(N)cc1OC (stereo not given)
Result: inactive

Q: // outcome(item) with item = C#CCN[C@@H]1CCc2ccccc21
Result: inactive

Q: // outcome(item) with item = NC[C@@H]1O[C@@H](O[C@H]2[C@@H](O)[C@H](O[C@@H]3[C@@H](O)[C@@H](N)C[C@H](N)[C@H]3O[C@H]3O[C@H](CN)[C@@H](O)[C@@H](O)[C@H]3N)O[C@H]2CO)[C@H](N)[C@@H](O)[C@@H]1O
Result: inactive

Q: // outcome(item) with item = CN1CCc2c(n(Cc3ccc(C(=O)NO)cc3)c3ccccc23)C1
Result: inactive

----------
Protocol summary: Quantitative highthroughput screen to assess conditional lethalithy of P12 Ichikawa cells grown in Human Plasma-Like Medium with dialyzed fetal bovine serum (HPLM+ds) (AID 1963879); also: nearly all actives have a fitted effect of over 35% in size
Test parameters: ATP luminescence, 48 h; viability; series mostly up to 45.8 µM
Inconclusive results are not listed. Activity calls are given as the source filed them. The call rests on the fitted dose curve; in most records, active means well fitted cell-killing curve with a large enough effect; inconclusive means small, poorly fitted or top-dose-only effect; inactive means flat fitted curve, though single readings scatter.
Allowed answers: YES for active, NO for inactive

Recorded results for 3 molecules are shown here.
| Molecule | Group label |
| --- | --- |
| Oc1ccc(-c2nc(-c3ccc(F)cc3)c(-c3ccncc3)[nH]2)cc1 | YES |
| CC(C)NCC(O)COc1ccc(COCCOC(C)C)cc1 (stereo not given) | NO |
| CC(=O)Nc1sc2c(c1-c1nc3ccccc3s1)CNC2 | NO |

Q: // outcome(item) with item = CCCCNc1cc(C(=O)O)cc(S(N)(=O)=O)c1Oc1ccccc1
Result: NO

Q: // outcome(item) with item = N#CC1(c2cccc(C(=O)Nc3cc(Oc4ccc5nc(NC(=O)C6CC6)sc5n4)ccc3F)c2Cl)CC1
Result: YES

Q: // outcome(item) with item = NCc1ccc(OCCCc2sc(-c3ccc4c(c3)/C(=N/Nc3nc5ccccc5s3)CCC4)nc2C(=O)O)cc1
Result: YES

Q: // outcome(item) with item = C[C@@H](NC(=O)c1ncnc(N)c1Cl)c1ncc(C(=O)Nc2cc(C(F)(F)F)c(Cl)cn2)s1
Result: NO

----------
Protocol summary: Viability qHTS for spleen associated tyrosine kinase inhibitor (SYKi) naive MV4-11 cells (AID 1963823); also: nearly all actives have a fitted effect of over 40% in size
Test parameters: MV4-11 AML viability, CellTiter-Glo luminescence, 72 h; series mostly up to 45 µM
Inconclusive results are not listed. Calls of active or inactive are those of the source. Calls follow the shape of the dose curve; as a rule, active = well fitted cell-killing curve with a large enough effect; inconclusive = small, poorly fitted or top-dose-only effect, or effect the other way; inactive = no such curve, though single readings can be large or run the other way.
Allowed answers: class 1 for active, class 0 for inactive

| Molecule | Group label |
| --- | --- |
| C[S+](CC[C@H](N)C(=O)[O-])C[C@H]1O[C@@H](n2cnc3c(N)ncnc32)[C@H](O)[C@@H]1O (stereo partly drawn) | class 0 |
| CN(C)CCc1c[nH]c2ccc(CS(=O)(=O)N3CCCC3)cc12 | class 0 |
| O=C(O)/C=C/c1ccc(-c2ccc(O)c(C34CC5CC(CC(C5)C3)C4)c2)cc1 | class 1 |
| CC[C@@H]([C@H](C)O)n1ncn(-c2ccc(N3CCN(c4ccc(OCC5CO[C@@](Cn6cncn6)(c6ccc(F)cc6F)C5)cc4)CC3)cc2)c1=O (stereo partly drawn) | class 1 |
| CCC(=O)Nc1ccc(O)cc1 | class 0 |
| Cc1cc2c(cc1S(N)(=O)=O)S(=O)(=O)CCC2 | class 0 |

Q: // outcome(item) with item = CS(=O)(=O)NCC1CCC(Nc2nc3c(s2)CCSc2ccccc2-3)CC1 (stereo not drawn)
Result: class 1

Q: // outcome(item) with item = CC1(C)[C@@H](O)CC[C@]2(C)[C@H]3CC=C4[C@@H]5C[C@](C)(C(=O)O)CC[C@]5(C)CC[C@@]4(C)[C@]3(C)CC[C@@H]12
Result: class 0

Q: // outcome(item) with item = CN1CCN(S(=O)(=O)c2ccc(-c3cnc(N)c(C(=O)Nc4cccnc4)n3)cc2)CC1
Result: class 1

Q: // outcome(item) with item = CCC(=O)O[C@H]1[C@H](O[C@@H]2[C@@H](C)[C@H](O[C@H]3C[C@@](C)(OC)[C@@H](O)[C@H](C)O3)[C@@H](C)C(=O)O[C@H](CC)[C@@](C)(O)[C@H](O)[C@@H](C)C(=O)[C@H](C)C[C@@]2(C)O)O[C@H](C)C[C@@H]1N(C)C
Result: class 0

Q: // outcome(item) with item = c1cc(-c2cc(C3CCNCC3)[nH]n2)ccn1
Result: class 0

Q: // outcome(item) with item = Cn1cc(-c2ccc(-c3cncc(Cl)c3N3CCC4(CCNC4=O)CC3)cc2)cn1
Result: class 1

Q: // outcome(item) with item = O=C1OCc2cc3cccc(O[C@@H]4O[C@H](CO)[C@@H](O)[C@H](O)[C@H]4O)c3c(O)c21
Result: class 0

Q: // outcome(item) with item = COC1CC(=O)C23C(=O)NC(Cc4c[nH]c5ccccc45)C2C(C)C2(C)OC2C3/C=C/CC(C)CC1O (stereo not drawn)
Result: class 1

Q: // outcome(item) with item = CCC[C@H](NC(=O)/C(C#N)=C/c1cccc(Br)n1)c1ccccc1
Result: class 1

Q: // outcome(item) with item = NS(=O)(=O)c1cc2c(cc1C(F)(F)F)NCNS2(=O)=O
Result: class 0

Q: // outcome(item) with item = O=C1N=C(O)CN1/N=C/c1ccc(-c2ccc([N+](=O)[O-])cc2)o1
Result: class 0

Q: // outcome(item) with item = O=C(NCCS(=O)(=O)c1ccc(C(F)(F)F)cn1)c1ccc(Cl)cc1
Result: class 0

Q: // outcome(item) with item = COc1cc(C(=O)OC(COCCC(C)C)CN2CCOCC2)cc(OC)c1OC (stereo not drawn)
Result: class 0

Q: // outcome(item) with item = COc1cc(C2Oc3c(OC)cc(CCCO)cc3C2CO)ccc1O[C@H]1O[C@H](C)[C@@H](O)[C@H](O)[C@@H]1O (stereo partly drawn)
Result: class 0

Q: // outcome(item) with item = C=C[C@H]1[C@H](O[C@@H]2O[C@H](CO)[C@@H](O)[C@H](OC(=O)/C=C/c3ccc(O)c(OC)c3)[C@H]2O)OC=C2C(=O)OCC[C@]21O
Result: class 0

Q: // outcome(item) with item = CC1=C(C(=O)O)N2C(=O)[C@@H](NC(=O)[C@H](N)c3ccc(O)cc3)[C@H]2SC1
Result: class 0

Q: // outcome(item) with item = CC(=NNC(=O)c1cccc(S(=O)(=O)N2CCOCC2)c1)c1cc(Cl)ccc1O
Result: class 1

Q: // outcome(item) with item = C=C1[C@@H](C2=CC(=O)OC2)CC[C@@]2(O)[C@@H]1CC1[C@H]2CC[C@@H]2C[C@@H](O[C@H]3O[C@@H](C)[C@@H](O[C@@H]4O[C@H](CO[C@@H]5O[C@H](CO)[C@@H](O)[C@H](O)[C@H]5O)[C@@H](O)[C@H](O)[C@H]4O)[C@H](OC)[C@H]3O)CC[C@]12C (stereo partly drawn)
Result: class 1

Q: // outcome(item) with item = CC(C)NC[C@H](O)COc1ccc(CCOCC2CC2)cc1
Result: class 0

Q: // outcome(item) with item = COc1ccc(CCC(=O)c2c(O)cc(O[C@@H]3O[C@H](CO)[C@@H](O)[C@H](O)[C@H]3O[C@@H]3O[C@@H](C)[C@H](O)[C@@H](O)[C@H]3O)cc2O)cc1O
Result: class 0

Q: // outcome(item) with item = CC(C)CC(=O)O[C@@H]1OC=C(CO[C@@H]2O[C@H](CO[C@@H]3O[C@H](CO)[C@@H](O)[C@H](O)[C@H]3O)[C@@H](O)[C@H](O)[C@H]2O)[C@H]2C[C@H](O)[C@@H](CO)[C@@H]12
Result: class 0

Q: // outcome(item) with item = O=C1c2cccc(O)c2C(=O)c2c(O)cc(CO)cc21
Result: class 1

Q: // outcome(item) with item = C/C(=C\C=C\C(C)C1CCC2(C)C3CCC4C(C)(C)C(=O)CCC45CC35CCC12C)C(=O)O (stereo not drawn)
Result: class 0

Q: // outcome(item) with item = COc1c2ccoc2cc2oc(CO[C@@H]3O[C@H](CO)[C@@H](O)[C@H](O)[C@H]3O)cc(=O)c12
Result: class 0
